- measured-target: Cytochrome P450 1A2 (Homo sapiens)
- experimental-details: Cytochrome panel assay with activity outcomes
- protocol-conditions: recombinant CYP, pro-luciferin dealkylation, luminescence, p450-cyp1a2; series mostly up to 57.1 µM
Screen size: about 16,000 compounds; about 5,700 (36%) were called active. Inconclusive results (about 24%) are left out. The list shows a part of the results.
test-readout: AC50

Would you please look over these solved cases?
>>> print(df.to_string())
                                   compound          observed
0  N#CCCn1c(=O)c(-c2cccs2)nc2cnc(Oc3cccc(Cl)c3)nc21  3.16 µM (active)
1  CCOc1ccc(N(CC(=O)NCc2ccc(OC)cc2)S(=O)(=O)c2c(C)noc2C)cc1          inactive
2              CSc1nsc(SC)c1NC(=O)Nc1ccccn1  2.51 µM (active)
3  CN(C(=O)c1cnc(N2CCN(c3ncccn3)CC2)c2ccccc12)c1ccc(Cl)cc1  15.8 µM (active)
4  COCCn1c(=O)c(-c2ccccc2)nc2cnc(Oc3cccc(Cl)c3)nc21     1 µM (active)
5  Cc1ccc(OCC(=O)Nc2ccc(S(=O)(=O)Nc3onc(C)c3C)cc2)cc1          inactive
6             CSc1nsc(SC)c1NC(=O)OCc1ccccc1    10 µM (active)
7      COCCNC(=O)COC(=O)/C=C/c1cnc2ccccc2n1  7.08 µM (active)

State, in one line, measured AC50 of O=C(NCC1CCC(C(=O)O)CC1)OCc1ccccc1 (stereo unspecified) inactive

State, in one line, measured AC50 of COCC(=O)N1CCC2(CC1)CCN(c1ncccn1)CC2 inactive

State, in one line, measured AC50 of Cc1cc(NC(=O)c2ccc(S(=O)(=O)Nc3ccccc3)cc2)no1 5.01 µM (active)

State, in one line, measured AC50 of O=C(O)[C@@H]1[C@@H](C(=O)NCc2ccncc2)[C@@H]2C=C[C@@H]1O2 5.01 µM (active)

State, in one line, measured AC50 of COc1cc2ccccc2cc1C(=O)Nc1ccc(S(=O)(=O)Nc2cc(C)on2)cc1 25.1 µM (active)

State, in one line, measured AC50 of NS(=O)(=O)c1ccc(NS(=O)(=O)c2ccc(NC(=O)c3ccc(-c4ccccc4)cc3)cc2)cc1 inactive

State, in one line, measured AC50 of COc1ccc(-n2c(N)c(C(=O)NCc3ccco3)sc2=S)cc1 11.2 µM (active)

State, in one line, measured AC50 of O=C(c1cnc(N2CCN(c3ncccn3)CC2)c2ccccc12)N1CCN(c2ncccn2)CC1 inactive

State, in one line, measured AC50 of CCNc1ncc2ncc(=O)n(C3CC3)c2n1 3.16 µM (active)

State, in one line, measured AC50 of N#C/C(=C\Nc1ccccn1)C(=O)C1CC1 1.26 µM (active)

State, in one line, measured AC50 of CN(C)c1ccc(-c2noc(C3CCN(S(=O)(=O)c4cccc(C(=O)O)c4)CC3)n2)cc1 inactive

State, in one line, measured AC50 of CC(=O)N1CCC2(CC1)CCN(C(=O)Nc1cccc(F)c1)CC2 inactive

State, in one line, measured AC50 of CCC(=O)O[C@@]1(C(=O)SCF)[C@@H](C)C[C@H]2[C@@H]3C[C@@H](F)C4=CC(=O)C=C[C@@]4(C)[C@]3(F)[C@@H](O)C[C@]21C inactive
